Cited source: PubChem BioAssay (NCI)

system: RPMI-8226 leukemia; test: NCI tumour cell line growth inhibition, 48 h
# key: entry, value: TGI

MOLECULE	TGI
Cc1cccc(C)c1NC(=S)NC=C(C(N)=O)C(N)=O	> 100 µM
NC(N)=N/N=C/c1c(-c2ccc([N+](=O)[O-])cc2)nc2n1CCS2	> 63.3 µM
COc1ccc(C2=C(c3ccc(OC)c(OC)c3)C(=O)OC2)cc1	0.329 µM
N#Cc1c(Cl)/c(=C/O)c(=O)n2c1nc1ccccc12	> 100 µM
CC(=O)Nc1c(C)ccc2c1C(=O)c1ccccc1C2=O	> 100 µM
CCOP(=O)(OCC)c1ccc(=O)[nH]c1-c1cccs1	> 100 µM
Nc1ncn(C2C=C(CO)C(O)C2O)c(=O)n1 (centres undefined)	> 100 µM
c1ccc(Nc2nnc(Cn3ccc4ccccc43)s2)cc1	> 100 µM
O=C1c2ccccc2C2=Nc3ccncc3CN12	> 100 µM
